Biological target: Axl (Homo sapiens (Human))
Sequence (P30530 26-894): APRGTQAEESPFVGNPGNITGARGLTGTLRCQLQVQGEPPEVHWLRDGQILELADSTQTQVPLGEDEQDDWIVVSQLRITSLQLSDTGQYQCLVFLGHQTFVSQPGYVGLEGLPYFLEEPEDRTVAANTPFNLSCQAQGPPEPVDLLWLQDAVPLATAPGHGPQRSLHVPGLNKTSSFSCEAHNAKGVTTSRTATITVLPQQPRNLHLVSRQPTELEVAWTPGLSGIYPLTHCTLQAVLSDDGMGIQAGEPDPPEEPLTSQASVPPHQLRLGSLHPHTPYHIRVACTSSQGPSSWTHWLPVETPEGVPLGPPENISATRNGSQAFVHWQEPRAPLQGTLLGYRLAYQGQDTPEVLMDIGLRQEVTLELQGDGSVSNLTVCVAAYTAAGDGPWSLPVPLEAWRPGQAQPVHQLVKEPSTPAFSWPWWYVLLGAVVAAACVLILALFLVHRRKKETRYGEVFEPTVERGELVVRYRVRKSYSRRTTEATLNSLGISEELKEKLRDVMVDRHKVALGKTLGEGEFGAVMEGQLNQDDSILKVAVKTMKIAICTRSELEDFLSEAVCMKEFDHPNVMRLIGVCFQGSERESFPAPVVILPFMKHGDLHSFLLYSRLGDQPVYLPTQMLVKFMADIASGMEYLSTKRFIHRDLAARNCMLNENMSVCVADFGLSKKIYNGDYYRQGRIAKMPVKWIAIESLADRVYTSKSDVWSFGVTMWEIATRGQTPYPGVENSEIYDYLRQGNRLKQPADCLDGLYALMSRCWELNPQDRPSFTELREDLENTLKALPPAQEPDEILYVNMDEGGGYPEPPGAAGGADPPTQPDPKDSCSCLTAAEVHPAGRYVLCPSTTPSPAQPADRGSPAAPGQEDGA
Experiment: Phospho-Akt in-cell Western assay (Axl-antibody cross-linking stimulation)
Assay type: cell-based
Details: inhibition of Axl activity, Hela cells, phospho-Akt readout; Table 4, formula (Ib2)
pIC50: −log10 of the molar value.
Quantity Measured: pIC50

Here's what some known entries look like.
>>> result_value("Nc1nc(Nc2ccc(N3CCN(C4CCCC4)CC3)c(F)c2)n(-c2nc3ccccc3c3ccccc23)n1 [Compound 205]")
"> 6.00"
>>> result_value("CN1CCN(c2ccc(Nc3nc(N)nn3-c3ncnc4ccc(Cl)cc34)cc2)CC1 [Compound 86]")
"> 6.00"
>>> result_value("COc1cc2ncnc(-n3nc(N)nc3Nc3ccc(N4CCN(C5CCCCC5)CC4)cc3)c2cc1OC [Compound 83]")
"> 6.00"
>>> result_value("Nc1nc(Nc2ccc(N3CCN(C4CC5CCC4C5)CC3)cc2)n(-c2nc3ccccc3s2)n1 (centres unmarked) [Compound 95]")
"< 4.70"

Continue with the next compound.
I would be grateful if you could share the reported pIC50 for COc1cc2ncnc(-n3nc(N)nc3Nc3ccc(N4CCN(C5CC6CCC5C6)CC4)cc3)c2cc1OC (centres unmarked) [Compound 100] .
> 6.00
